pIC50: −log10 of the molar value.
Assay system Phosphodiesterase (Bos taurus, UniProt E1BN64); read-out recorded as pIC50.

[[record]]
structure_notation = "CCCCn1c(O)c2n(c1=O)[C@@H](c1ccc(OC)cc1)c1[nH]c3ccccc3c1C2"
observed_property = "pIC50"
data_value = "< 5.00"


response.value for COc1ccc([C@@H]2c3[nH]c4ccccc4c3Cc3c(O)n(Cc4ccccc4)c(=O)n32)cc1 (field: pIC50) = < 5.00

----------
A collection of molecules and their measured pIC50
# MEASURED ON: cGMP-specific 3',5'-cyclic phosphodiesterase (Bos taurus)
Interpret pIC50 as the negative base-10 log of the concentration measured in mol/L.

[[record]]
structure_notation = "COc1ccc([C@H]2c3[nH]c4ccccc4c3Cc3c(O)[nH]c(=O)n32)cc1"
observed_property = "pIC50"
data_value = 7.70


Quick note, pIC50 for CCCCn1c(O)c2n(c1=O)[C@H](c1ccsc1)c1[nH]c3ccccc3c1C2 landed at 7.52
